Hi there, I'd appreciate the recorded IC50 for every entry that follows.
study target: Factor IXa (Homo sapiens, UniProt P00740)
Sequence (P00740 227-461 limits assumed): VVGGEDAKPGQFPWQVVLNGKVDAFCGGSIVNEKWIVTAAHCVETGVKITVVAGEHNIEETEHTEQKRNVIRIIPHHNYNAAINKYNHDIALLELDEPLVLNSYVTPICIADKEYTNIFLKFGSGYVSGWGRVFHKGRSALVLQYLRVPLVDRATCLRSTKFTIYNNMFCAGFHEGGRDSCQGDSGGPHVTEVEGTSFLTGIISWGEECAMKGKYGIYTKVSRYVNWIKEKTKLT
Sequence (P00740 47-191 partner limits assumed): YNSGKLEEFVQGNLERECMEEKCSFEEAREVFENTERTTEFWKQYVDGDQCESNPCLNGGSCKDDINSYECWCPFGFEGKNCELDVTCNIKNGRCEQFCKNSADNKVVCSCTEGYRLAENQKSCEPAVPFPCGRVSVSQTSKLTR
State the answer as a number, implicitly in µM.

Query :: Recorded IC50 of C[C@]1([C@@H](O)C(=O)Nc2cc(F)c3c(N)noc3c2)OCCN(c2ccn(-c3ccnnc3)n2)C1=O [Example 142] , please.
Result :: 0.00627

Query :: Entry to check: COc1cc(-n2ccc(N3CCO[C@H]([C@@](C)(O)C(=O)Nc4ccc5c(N)noc5c4)C3=O)n2)c(C(F)(F)F)cn1 [Example 29]
Result :: 0.106

Query :: Repeat for the following molecule: COC(=O)c1ccc(-n2ccc(N3CCO[C@](C)([C@@H](O)C(=O)Nc4ccc5c(N)noc5c4)C3=O)n2)cc1 [Example 81]
Result :: 0.418

Query :: Item: C[C@H]1CN(c2nn(-c3ccnnc3)cc2F)C(=O)[C@@H]([C@@H](O)C(=O)Nc2ccc3c(N)noc3c2)O1 [Example 161]
Result :: 0.0323
